Where these numbers come from: ChEMBL document CHEMBL2057165

Can you tell me log10 of IC50 for the items I'm about to list?
Experiment: Inhibition of Hepatitis C virus NS5B polymerase
Parameters: species or system Hepacivirus hominis
On a log10 scale: recorded IC50, unit nM.

Name the reported log10 of IC50 value associated with the compound C[C@@]1(F)[C@H](O)[C@@H](COP(=O)(O)OP(=O)(O)OP(=O)(O)O)O[C@H]1n1cc(-c2ncco2)c2c(N)ncnc21 2.48

Form field: reported log10 of IC50 of C[C@@]1(O)[C@H](O)[C@@H](COP(=O)(O)OP(=O)(O)OP(=O)(O)O)O[C@H]1n1cc(-c2ncco2)c2c(N)ncnc21 2.70

Given the compound C[C@@]1(O)[C@H](O)[C@@H](COP(=O)(O)OP(=O)(O)OP(=O)(O)O)O[C@H]1n1cc(-c2cn[nH]c2)c2c(N)ncnc21 , what is its reported log10 of IC50? 3.92

So what does the record say about log10 of IC50 for C[C@@]1(O)[C@H](O)[C@@H](COP(=O)(O)OP(=O)(O)OP(=O)(O)O)O[C@H]1n1cc(-c2ncccn2)c2c(N)ncnc21 ? 4.08

Reported log10 of IC50, compound C[C@@]1(O)[C@H](O)[C@@H](COP(=O)(O)OP(=O)(O)OP(=O)(O)O)O[C@H]1n1cc(-c2ncon2)c2c(N)ncnc21 : ____ 2.70

Any idea what its log10 of IC50 is? The compound is C[C@@]1(F)[C@H](O)[C@@H](COP(=O)(O)OP(=O)(O)OP(=O)(O)O)O[C@H]1n1cc(-c2ccn[nH]2)c2c(N)ncnc21 1.85

For the compound shown here, Cc1noc(-c2cn([C@@H]3O[C@H](COP(=O)(O)OP(=O)(O)OP(=O)(O)O)[C@@H](O)[C@@]3(C)O)c3ncnc(N)c23)n1 , give the reported log10 of IC50. 3.92

// log10 of IC50 lookup, key: Cn1cc(-c2cn([C@@H]3O[C@H](COP(=O)(O)OP(=O)(O)OP(=O)(O)O)[C@@H](O)[C@@]3(C)O)c3ncnc(N)c23)nn1 3.92

Can you share its log10 of IC50? I mean this compound: C[C@@]1(O)[C@H](O)[C@@H](COP(=O)(O)OP(=O)(O)OP(=O)(O)O)O[C@H]1n1ccc2c(N)ncnc21 2.00

What does the data say about its log10 of IC50? Entry: C[C@@]1(F)[C@H](O)[C@@H](COP(=O)(O)OP(=O)(O)OP(=O)(O)O)O[C@H]1n1cc(-c2ncon2)c2c(N)ncnc21 2.60

For the compound C[C@@]1(O)[C@H](O)[C@@H](COP(=O)(O)OP(=O)(O)OP(=O)(O)O)O[C@H]1n1cc(-c2cc[nH]n2)c2c(N)ncnc21 , what log10 of IC50 is on record? 2.00

* * *

Tested on: Liver
Assay: Drug uptake in Wistar Han rat liver assessed as nucleotide triphosphate level per gram of tissue at 20 mg/kg, po measured after 12 hrs
Type: ADME, organism-based
Set-up: dose 20 mg/kg, route oral
Details: in vivo
MEASURED PROPERTY: Drug uptake (nmol/g)
Could you give me the number in nmol/g? Just the number is fine.

Record request: Drug uptake value, item C[C@@]1(O)[C@H](O)[C@@H](CO)O[C@H]1n1cc(-c2ncon2)c2c(N)ncnc21 0.4
